Here, each record is paired with measured Animals data.
# Test system: Mus musculus
# protocol: Incidence of disease (mouse type II collagen) was scored as the percentage of animals within each experimental group that exhibited joint or limb inflammation on day 23 at intraperitoneal dose of 3 mg/kg
# Type: functional
Provide the measurement as a number trailed by its unit.

| compound | Animals |
| --- | --- |
| C=CCC(Cc1cnc2nc(N)nc(N)c2c1C)c1ccc(C(=O)NC(CCC(=O)O)C(=O)O)cc1 (centres undefined) | 25% |
| C=CCN(Cc1cnc2nc(N)nc(N)c2c1CC)c1ccc(C(=O)NC(CCC(=O)O)C(=O)O)cc1 (centres undefined) | 0% |
| C=CCN(Cc1cnc2nc(N)nc(N)c2c1C)c1ccc(C(=O)NC(CCC(=O)O)C(=O)O)cc1 (centres undefined) | 0% |
| Cc1c(CN(C)c2ccc(C(=O)NC(CCC(=O)O)C(=O)O)s2)cnc2nc(N)nc(N)c12 (centres undefined) | 0% |
| Cc1c(CCc2ccc(C(=O)NC(CCC(=O)O)C(=O)O)cc2)cnc2nc(N)nc(N)c12 (centres undefined) | 25% |
| CCCc1c(CNc2ccc(C(=O)NC(CCC(=O)O)C(=O)O)cc2)cnc2nc(N)nc(N)c12 (centres undefined) | 0% |
| Cc1c(CN(C)c2ccc(C(=O)NC(CCC(=O)O)C(=O)O)cc2)cnc2nc(N)nc(N)c12 (centres undefined) | 0% |
| CCc1c(CN(C)c2ccc(C(=O)NC(CCC(=O)O)C(=O)O)s2)cnc2nc(N)nc(N)c12 (centres undefined) | 0% |

Query block: # input compound: C#CCN(Cc1cnc2nc(N)nc(N)c2c1CC)c1ccc(C(=O)NC(CCC(=O)O)C(=O)O)cc1 (centres undefined) ; wanted: its Animals
Result block: 0%

Query block: Any idea what its Animals is? The compound is CCCCc1c(CNc2ccc(C(=O)NC(CCC(=O)O)C(=O)O)cc2)cnc2nc(N)nc(N)c12 (centres undefined)
Result block: 0%

Query block: Using the record for CCCN(Cc1cnc2nc(N)nc(N)c2c1C)c1ccc(C(=O)NC(CCC(=O)O)C(=O)O)cc1 (centres undefined) , report its Animals.
Result block: 0%

Query block: Could you share which Animals value was measured for C#CCN(Cc1cnc2nc(N)nc(N)c2c1C)c1ccc(C(=O)NC(CCC(=O)O)C(=O)O)cc1 (centres undefined) ?
Result block: 0%

Query block: So what does the record say about Animals for Cc1c(CNc2ccc(C(=O)NC(CCC(=O)O)C(=O)O)cc2)cnc2nc(N)nc(N)c12 (centres undefined) ?
Result block: 12%

Query block: Please look up its Animals: CCC(Cc1cnc2nc(N)nc(N)c2c1)c1ccc(C(=O)NC(CCC(=O)O)C(=O)O)cc1 (centres undefined)
Result block: 25%
